- assay.system: Protein-arginine deiminase type-2 (Homo sapiens)
- Sequence (Q9Y2J8 whole entry): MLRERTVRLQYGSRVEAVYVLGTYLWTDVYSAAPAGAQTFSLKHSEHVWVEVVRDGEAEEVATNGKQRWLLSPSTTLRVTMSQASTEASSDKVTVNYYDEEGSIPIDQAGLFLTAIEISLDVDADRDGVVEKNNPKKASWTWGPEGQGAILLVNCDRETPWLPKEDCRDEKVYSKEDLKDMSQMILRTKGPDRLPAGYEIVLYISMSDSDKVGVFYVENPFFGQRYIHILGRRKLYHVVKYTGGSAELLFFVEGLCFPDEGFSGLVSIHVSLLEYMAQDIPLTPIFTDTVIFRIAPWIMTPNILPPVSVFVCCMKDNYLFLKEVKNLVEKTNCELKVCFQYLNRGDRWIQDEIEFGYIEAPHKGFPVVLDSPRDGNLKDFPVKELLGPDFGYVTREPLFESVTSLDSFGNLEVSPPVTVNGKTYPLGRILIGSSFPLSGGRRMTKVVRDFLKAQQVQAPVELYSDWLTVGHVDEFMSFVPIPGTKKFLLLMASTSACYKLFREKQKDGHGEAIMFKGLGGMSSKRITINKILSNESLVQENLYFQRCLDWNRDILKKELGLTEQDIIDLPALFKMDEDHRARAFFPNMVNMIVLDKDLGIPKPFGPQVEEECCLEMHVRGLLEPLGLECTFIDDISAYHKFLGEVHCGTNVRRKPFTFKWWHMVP
- protocol: Inhibition of recombinant human 6His-tagged PAD2 assessed as reduction in residual activity preincubated for 15 mins followed by addition of N-benzoylated arginine ethyl ester hydrochloride measured after 15 mins by colder assay
property: IC50 (µM)
Quick reminder: number only, in µM, skip the unit.

>  <smiles.record>
N=C(CCl)NCC#CC(=O)NCc1cccc(-c2ccccc2)c1

>  <result.units>
µM

>  <val>
153

$$$$
>  <smiles.record>
N=C(CCl)NCCNC(=O)NCc1cccc(-c2ccccc2)c1

>  <result.units>
µM

>  <val>
140

$$$$

[ask] Item N=C(CCl)NCCOC(=O)NCc1cccc(-c2ccccc2)c1 has what recorded IC50?
[reply] 151

[ask] Sample N=C(CCl)NCCCc1cn(-c2cccc(-c3ccccc3)c2)nn1 — what was its IC50?
[reply] 110

* * *

- assay.system: Protein-arginine deiminase type-1 (Homo sapiens, UniProt Q9ULC6)
- Sequence (Q9ULC6 whole entry): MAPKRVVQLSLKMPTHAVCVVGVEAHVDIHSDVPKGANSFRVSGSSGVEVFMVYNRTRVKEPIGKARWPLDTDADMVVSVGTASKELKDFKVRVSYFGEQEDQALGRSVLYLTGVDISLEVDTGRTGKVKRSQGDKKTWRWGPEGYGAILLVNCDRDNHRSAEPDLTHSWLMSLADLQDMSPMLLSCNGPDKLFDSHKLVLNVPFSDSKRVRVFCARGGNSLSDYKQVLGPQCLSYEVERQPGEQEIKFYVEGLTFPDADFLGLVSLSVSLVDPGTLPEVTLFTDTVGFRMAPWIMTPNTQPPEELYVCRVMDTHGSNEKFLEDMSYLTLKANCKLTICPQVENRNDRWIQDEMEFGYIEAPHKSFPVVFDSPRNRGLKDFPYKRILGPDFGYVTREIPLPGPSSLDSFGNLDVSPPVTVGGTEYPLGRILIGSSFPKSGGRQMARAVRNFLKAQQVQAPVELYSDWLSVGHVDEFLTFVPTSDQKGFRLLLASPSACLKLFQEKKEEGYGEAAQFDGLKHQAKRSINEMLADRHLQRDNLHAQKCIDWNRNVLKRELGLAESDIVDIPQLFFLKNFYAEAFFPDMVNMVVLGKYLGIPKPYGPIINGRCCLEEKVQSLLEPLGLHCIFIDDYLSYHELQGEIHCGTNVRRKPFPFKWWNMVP
- protocol: Inhibition of recombinant human 6His-tagged PAD1 assessed as reduction in residual activity preincubated for 15 mins followed by addition of N-benzoylated arginine ethyl ester hydrochloride measured after 15 mins by colder assay
property: IC50

# annotated cases, reported IC50 shown
>  <smiles.record>
N=C(CCl)NCC#CC(=O)NCc1cccc(-c2ccccc2)c1

>  <IC50>
408 µM

$$$$
>  <smiles.record>
N=C(CCl)NCCCc1cn(-c2cccc(-c3ccccc3)c2)nn1

>  <IC50>
294 µM

$$$$
>  <smiles.record>
N=C(CCl)NCCOC(=O)NCc1cccc(-c2ccccc2)c1

>  <IC50>
> 500 µM

$$$$
>  <smiles.record>
N=C(CCl)NCCCc1nc(Cl)c(-c2cccc(-c3ccccc3)c2)[nH]1

>  <IC50>
161 µM

$$$$

Next, consider the following compound.
[ask] Look up IC50: N=C(CCl)NC/C=C/C(=O)NCc1cccc(-c2ccccc2)c1
[reply] 125 µM

* * *

- assay.system: Protein-arginine deiminase type-4 (Homo sapiens, UniProt Q9UM07)
- Sequence (Q9UM07 whole entry): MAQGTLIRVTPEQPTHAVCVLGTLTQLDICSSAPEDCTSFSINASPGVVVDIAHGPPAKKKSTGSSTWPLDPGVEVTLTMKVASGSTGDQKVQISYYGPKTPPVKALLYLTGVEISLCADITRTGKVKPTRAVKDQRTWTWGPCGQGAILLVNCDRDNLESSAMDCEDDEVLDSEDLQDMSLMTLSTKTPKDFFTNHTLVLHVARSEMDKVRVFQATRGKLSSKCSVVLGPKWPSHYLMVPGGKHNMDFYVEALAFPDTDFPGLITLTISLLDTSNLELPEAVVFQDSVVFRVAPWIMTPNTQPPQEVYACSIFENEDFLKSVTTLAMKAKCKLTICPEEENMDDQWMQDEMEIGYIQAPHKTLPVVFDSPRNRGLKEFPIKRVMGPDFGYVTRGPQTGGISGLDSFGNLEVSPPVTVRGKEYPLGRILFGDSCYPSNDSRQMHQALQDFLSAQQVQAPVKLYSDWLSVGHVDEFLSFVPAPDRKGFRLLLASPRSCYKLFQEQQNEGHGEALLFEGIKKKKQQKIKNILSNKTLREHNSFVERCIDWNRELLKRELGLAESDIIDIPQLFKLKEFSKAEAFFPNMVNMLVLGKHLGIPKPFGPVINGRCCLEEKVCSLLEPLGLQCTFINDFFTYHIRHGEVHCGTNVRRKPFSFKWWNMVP
- protocol: Inhibition of recombinant human GST-tagged PAD4 expressed in Escherichia coli BL21-DE3 pLysS assessed as reduction in reduction in residual activity preincubated for 15 mins followed by addition of N-benzoylated arginine ethyl ester hydrochloride measured after 15 mins by colder assay
property: IC50 (µM)
Record the value in µM, omitting the unit from your answer.

[ask] What measured IC50 goes with N=C(CCl)NCCNC(=O)NCc1cccc(-c2ccccc2)c1 ?
[reply] 129

src = ChEMBL document CHEMBL4431395
